The origin of these recorded values is patent US9315491B2.

molecular target: PI3K (p110α/p85α) (Homo sapiens (Human), UniProt P42336); assay: PI3K HTRF enzyme assay, p110α/p85α; format: biochemical; conditions: read-out: % inhibition @ 500 nM p110α; compound at 500 nM, 10 μM ATP
Sequence (P42336 whole entry, species assumed): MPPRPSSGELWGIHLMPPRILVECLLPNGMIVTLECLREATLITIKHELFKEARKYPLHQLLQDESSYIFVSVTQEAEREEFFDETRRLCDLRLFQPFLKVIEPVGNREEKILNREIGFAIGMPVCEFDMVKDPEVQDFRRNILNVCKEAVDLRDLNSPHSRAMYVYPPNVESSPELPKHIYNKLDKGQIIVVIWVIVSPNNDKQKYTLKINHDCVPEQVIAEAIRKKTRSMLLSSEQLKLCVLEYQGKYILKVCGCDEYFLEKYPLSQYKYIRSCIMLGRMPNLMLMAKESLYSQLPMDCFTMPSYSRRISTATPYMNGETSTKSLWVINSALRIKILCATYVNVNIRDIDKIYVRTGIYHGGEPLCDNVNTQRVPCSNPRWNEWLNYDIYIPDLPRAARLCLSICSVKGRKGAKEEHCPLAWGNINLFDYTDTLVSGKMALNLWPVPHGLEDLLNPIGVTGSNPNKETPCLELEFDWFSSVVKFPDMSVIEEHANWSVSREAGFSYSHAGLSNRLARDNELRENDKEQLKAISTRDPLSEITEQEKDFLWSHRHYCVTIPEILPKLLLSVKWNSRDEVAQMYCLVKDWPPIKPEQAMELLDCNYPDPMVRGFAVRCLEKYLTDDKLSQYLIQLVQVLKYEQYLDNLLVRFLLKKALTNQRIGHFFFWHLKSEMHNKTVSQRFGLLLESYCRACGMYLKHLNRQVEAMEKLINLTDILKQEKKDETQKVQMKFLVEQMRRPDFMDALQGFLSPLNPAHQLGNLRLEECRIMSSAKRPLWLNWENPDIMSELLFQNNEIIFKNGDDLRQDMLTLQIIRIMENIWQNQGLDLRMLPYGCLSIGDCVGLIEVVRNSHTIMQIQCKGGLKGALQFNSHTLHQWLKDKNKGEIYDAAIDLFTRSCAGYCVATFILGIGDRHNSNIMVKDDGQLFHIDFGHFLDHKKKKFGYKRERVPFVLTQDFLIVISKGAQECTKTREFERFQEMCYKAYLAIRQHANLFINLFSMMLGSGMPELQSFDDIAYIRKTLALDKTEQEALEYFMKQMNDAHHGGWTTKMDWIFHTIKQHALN
Sequence (P27986 whole entry partner, species assumed): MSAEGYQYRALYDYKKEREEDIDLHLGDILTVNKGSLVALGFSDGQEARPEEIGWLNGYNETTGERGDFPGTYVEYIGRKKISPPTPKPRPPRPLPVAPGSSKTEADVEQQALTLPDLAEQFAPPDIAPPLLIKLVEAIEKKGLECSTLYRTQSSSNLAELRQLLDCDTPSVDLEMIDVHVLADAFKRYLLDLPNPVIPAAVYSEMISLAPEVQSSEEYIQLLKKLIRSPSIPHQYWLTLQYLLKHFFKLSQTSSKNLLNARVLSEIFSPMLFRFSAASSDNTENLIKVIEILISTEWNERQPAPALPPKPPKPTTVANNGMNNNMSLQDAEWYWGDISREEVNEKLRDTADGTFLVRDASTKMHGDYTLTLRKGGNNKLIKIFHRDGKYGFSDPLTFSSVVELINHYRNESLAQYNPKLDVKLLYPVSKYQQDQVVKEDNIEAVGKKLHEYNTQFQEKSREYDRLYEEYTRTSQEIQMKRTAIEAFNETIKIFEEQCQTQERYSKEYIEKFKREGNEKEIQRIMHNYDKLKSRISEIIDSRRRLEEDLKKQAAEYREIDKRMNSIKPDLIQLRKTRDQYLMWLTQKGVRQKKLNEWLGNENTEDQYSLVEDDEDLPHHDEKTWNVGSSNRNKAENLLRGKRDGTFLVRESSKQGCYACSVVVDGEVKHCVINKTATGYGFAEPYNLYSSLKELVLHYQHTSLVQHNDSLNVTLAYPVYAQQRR
Overview of recorded inhibition at 0.5 µM for various compounds
Answer with the number, then the unit.

CCOC(=O)c1nc(-c2ccc(NC(=O)Nc3ccc4oc(=O)[nH]c4c3)cc2)nc(N2CCOCC2)c1OCC 44.3%
CSc1cnc(-c2ccc(NC(=O)Nc3ccc(C(=O)N4CCOCC4)cc3)cc2)nc1N1CCOCC1 93.4%
COc1cnc(-c2ccc(NC(=O)Nc3ccc(S(N)(=O)=O)cc3)cc2)nc1N1CCOCC1 72.9%

Exercise: Suppose we examine the compound COc1cnc(-c2ccc(NC(=O)Nc3ccc(F)cc3)cc2)nc1N1CCOCC1 ; what inhibition at 0.5 µM value has been reported?
Solution: 83%

----------
target: recombinant mTOR (Homo sapiens (Human)); experiment: mTOR kinase assay (33P incorporation into 4EBP1); type: biochemical; conditions: compound at 10 μM, 10 μM ATP
Response key: Condition met means inhibition at 10 µM >= 90%; Condition not met means inhibition at 10 µM < 90%.

CCOC(=O)c1nc(-c2cccc(O)c2)nc(N2CCOCC2)c1OC Condition not met

Exercise: Given CCOC(=O)c1nc(-c2ccc3[nH]ccc3c2)nc(N2CCOCC2)c1OCC , state whether its inhibition at 10 µM is at least 90%.
Solution: Condition not met

Exercise: Moving on to the next compound: CSc1cnc(-c2ccc(NC(=S)Nc3ccc(N4CCOCC4=O)cc3)cc2)nc1N1CCOCC1
Solution: Condition not met

Exercise: Moving on to the next compound: CCOc1c(CN2CCCCC2)nc(-c2ccc(NC(=O)Nc3ccccc3)cc2)nc1N1CCOCC1
Solution: Condition not met

Exercise: Moving on to the next compound: CCNC(=O)Nc1ccc(-c2ncc(SC)c(N3CCOCC3)n2)cc1
Solution: Condition met

----------
target: recombinant mTOR (Homo sapiens (Human), UniProt P42345); assay: mTOR kinase assay (33P incorporation into 4EBP1); assay type: biochemical; conditions: compound at 10 μM, 10 μM ATP
Sequence (P42345 1360-2549): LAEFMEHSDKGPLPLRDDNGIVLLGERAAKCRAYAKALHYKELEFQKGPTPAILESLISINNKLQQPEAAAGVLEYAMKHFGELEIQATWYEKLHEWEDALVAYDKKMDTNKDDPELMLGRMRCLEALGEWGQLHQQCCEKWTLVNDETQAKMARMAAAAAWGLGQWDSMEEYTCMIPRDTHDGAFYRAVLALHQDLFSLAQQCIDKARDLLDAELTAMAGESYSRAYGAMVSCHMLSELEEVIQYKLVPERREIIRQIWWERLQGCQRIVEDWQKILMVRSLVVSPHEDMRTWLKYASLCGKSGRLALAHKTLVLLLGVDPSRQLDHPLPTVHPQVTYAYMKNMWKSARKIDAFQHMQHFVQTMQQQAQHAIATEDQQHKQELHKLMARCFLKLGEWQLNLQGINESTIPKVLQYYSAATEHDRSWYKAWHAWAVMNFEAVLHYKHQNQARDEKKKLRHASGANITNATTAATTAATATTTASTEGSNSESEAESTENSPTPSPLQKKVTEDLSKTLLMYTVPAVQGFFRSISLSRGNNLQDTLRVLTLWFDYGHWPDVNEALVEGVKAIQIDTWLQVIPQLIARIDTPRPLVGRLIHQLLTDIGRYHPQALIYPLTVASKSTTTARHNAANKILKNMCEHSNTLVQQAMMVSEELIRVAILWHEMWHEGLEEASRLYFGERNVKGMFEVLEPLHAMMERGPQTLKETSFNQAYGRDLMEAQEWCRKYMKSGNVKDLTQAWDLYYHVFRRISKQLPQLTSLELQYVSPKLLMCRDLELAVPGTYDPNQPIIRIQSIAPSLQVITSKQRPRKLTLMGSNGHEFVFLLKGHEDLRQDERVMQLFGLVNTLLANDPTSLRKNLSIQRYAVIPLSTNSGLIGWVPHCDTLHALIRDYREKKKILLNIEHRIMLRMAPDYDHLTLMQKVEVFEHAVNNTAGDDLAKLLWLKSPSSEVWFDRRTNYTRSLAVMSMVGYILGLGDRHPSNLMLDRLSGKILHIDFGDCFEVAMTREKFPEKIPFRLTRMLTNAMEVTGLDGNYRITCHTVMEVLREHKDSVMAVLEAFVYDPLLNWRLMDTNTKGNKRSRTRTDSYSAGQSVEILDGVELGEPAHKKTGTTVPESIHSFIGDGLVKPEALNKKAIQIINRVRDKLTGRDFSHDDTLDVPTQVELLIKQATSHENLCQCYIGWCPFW
Overview of recorded inhibition at 10 µM for various compounds
Give your result in % as a bare value.

Known inhibition at 10 µM results, listed for orientation:
CCOc1c(C(=O)N(CC)CC)nc(-c2ccc(NC(=O)Nc3ccccc3)cc2)nc1N1CCOCC1 98
CCOC(=O)c1nc(-c2ccc(NC(=O)Nc3ccc(Cl)nc3)cc2)nc(N2CCOCC2)c1OCC 83
CSc1c(Cl)nc(-c2ccc(NC(=O)NCCCl)cc2)nc1N1CCOCC1 89
CSc1c(-c2cccnc2)nc(-c2ccc(NC(=S)Nc3ccccc3)cc2)nc1N1CCOCC1 89
CSc1cnc(-c2ccc(NC(=O)NC(C)C)cc2)nc1N1CCOCC1 83
CSc1c(OCCN(C)C)nc(-c2cccc(O)c2)nc1N1CCOCC1 96
CCOc1c(C(=O)N2CCCC2)nc(-c2ccc(NC(=O)Nc3ccccc3)cc2)nc1N1CCOCC1 96

// next entry
Exercise: Suppose we examine the compound CCOC(=O)c1nc(-c2ccc(NC(=S)Nc3ccccc3)cc2)nc(N2CCOCC2)c1OCC ; what inhibition at 10 µM value has been reported?
Solution: 81

----------
target: PI3K (p110α/p85α) (Homo sapiens (Human)); assay: PI3K HTRF enzyme assay, p110α/p85α; assay type: biochemical; conditions: read-out: % inhibition @ 500 nM p110α; compound at 500 nM, 10 μM ATP
Response key: 1.0 means inhibition at 0.5 µM >= 70%; 0.0 means inhibition at 0.5 µM < 70%.

Molecule	Category label
CSc1c(Cl)nc(-c2ccc(NC(=O)Nc3ccc(C(N)=O)cc3)cc2)nc1N1CCOCC1 [MTR-0257]	1.0
COc1cnc(-c2ccc(NC(=O)Nc3ccc(N4CCOCC4=O)cc3)c(F)c2)nc1N1CCOCC1 [MTR-0405]	0.0

Exercise: Given COc1cnc(-c2ccc(NC(=O)Nc3ccccc3)cc2)nc1N1CCOCC1 [MTR-0128] , state whether its inhibition at 0.5 µM is at least 70%.
Solution: 1.0

Exercise: Moving on to the next molecule: CSc1c(Cl)nc(-c2ccc(NC(=O)Nc3cccc(NC(C)=O)c3)cc2)nc1N1CCOCC1 [MTR-0270]
Solution: 0.0

Exercise: Moving on to the next molecule: O=C(Nc1ccc(-c2ncc(OCCN3CCOCC3)c(N3CCOCC3)n2)cc1)Nc1ccc(N2CCOCC2=O)cc1 [MTR-0455]
Solution: 0.0

Exercise: Moving on to the next molecule: CSc1c(Cl)nc(-c2ccc(NC(=O)Nc3ccc4oc(=O)[nH]c4c3)cc2)nc1N1CCOCC1 [MTR-0372]
Solution: 1.0

----------
Overview of recorded inhibition at 10 µM for various molecules
Biological target: recombinant mTOR (Homo sapiens (Human), UniProt P42345)
Test: mTOR kinase assay (33P incorporation into 4EBP1)
Type: biochemical
Conditions: compound at 10 μM, 10 μM ATP
Method: The activity of the compound against mTOR was examined by measuring the incorporation of ^33P from [γ-^33P]-ATP into 4EBP1. […] The ^33P labeled 4EBP1 was transferred onto UniFilter-96 GF/B plate (PerkinElmer) and quantified by Top Count Microplate Scintillation Counter (PerkinElmer). For primary screening of kinase activity inhibition, each test compound was evaluated at 10 M in duplicate. […] The results were analyzed using linear regression software (GraphPad Prism 5; GraphPad Software Inc.). […]
Give your result in % as a bare value.

Exercise: Provide the documented inhibition at 10 µM with recombinant mTOR (Homo sapiens (Human), UniProt P42345) as the system for CCOc1c(CN2CCN(C)CC2)nc(-c2ccc(NC(=O)Nc3ccccc3)cc2)nc1N1CCOCC1
Solution: 86

Exercise: Moving on to the next molecule: CCOc1c(-c2ccncc2)nc(-c2ccc(NC(=O)Nc3ccc(N4CCOCC4=O)cc3)cc2)nc1N1CCOCC1
Solution: 100

Exercise: Moving on to the next molecule: CSc1c(Cl)nc(-c2ccc(NC(=O)Nc3ccc(F)cc3)cc2)nc1N1CCOCC1
Solution: 90

Exercise: Moving on to the next molecule: CCOC(=O)c1nc(-c2ccc(NC(=O)Nc3ccc(F)c(F)c3)cc2)nc(N2CCOCC2)c1OCC
Solution: 87

----------
Overview of recorded inhibition at 10 µM for various compounds
target: recombinant mTOR (Homo sapiens (Human)); experiment: mTOR kinase assay (33P incorporation into 4EBP1); format: biochemical; settings: compound at 10 μM, 10 μM ATP
Give your result in % as a bare value.

Exercise: Suppose we examine the compound CSc1c(Cl)nc(-c2ccc(NC(=O)Nc3ccc(N(C)C)cc3)cc2)nc1N1CCOCC1 [MTR-0123] ; what inhibition at 10 µM value has been reported?
Solution: 91

Exercise: Moving on to the next compound: COc1cnc(-c2ccc(NC(=O)Nc3ccc(NC(C)=O)nc3)cc2)nc1N1CCOCC1 [MTR-0486]
Solution: 88

Exercise: Moving on to the next compound: CCOC(=O)c1nc(-c2ccc(NC(=O)Nc3cccc4[nH]ncc34)cc2)nc(N2CCOCC2)c1OCC [MTR-0297]
Solution: 83

Exercise: Moving on to the next compound: CCOc1c(-c2ccncc2)nc(-c2ccc(NC(=O)Nc3ccncc3)cc2)nc1N1CCOCC1 [MTR-0492]
Solution: 100

Exercise: Moving on to the next compound: CSc1cnc(-c2ccc(NC(=O)Nc3ccccc3)cc2)nc1N1CCOCC1 [MTR-0162]
Solution: 95

----------
target: PI3K (p110α/p85α) (Homo sapiens (Human)); assay: PI3K HTRF enzyme assay, p110α/p85α; type: biochemical; details: read-out: % inhibition @ 500 nM p110α; compound at 500 nM, 10 μM ATP
Measurement kind: inhibition at 0.5 µM (%)
Give your result in % as a bare value.

CCOc1cnc(-c2ccc(NC(=O)Nc3ccc(NC(C)=O)cc3)cc2)nc1N1CCOCC1 101
COc1cnc(-c2ccc(NC(=O)Nc3cccc(C(N)=O)c3)cc2)nc1N1CCOCC1 86.9
CCOC(=O)c1nc(-c2ccc(NC(=O)Nc3ccc(N4CCOCC4=O)cc3)cc2)nc(N2CCOCC2)c1OCC 44.3

Exercise: Suppose we examine the molecule CSc1cnc(-c2ccc(NC(=O)Nc3ccc(NC(C)=O)cc3)cc2)nc1N1CCOCC1 ; what inhibition at 0.5 µM value has been reported?
Solution: 101

----------
target: PI3K (p110α/p85α) (Homo sapiens (Human), UniProt P42336); assay: PI3K HTRF enzyme assay, p110α/p85α; assay type: biochemical; conditions: read-out: % inhibition @ 500 nM p110α; compound at 500 nM, 10 μM ATP
Overview of recorded inhibition at 0.5 µM for various molecules
Answer with the number, then the unit.

Known inhibition at 0.5 µM results, listed for orientation:
O=C(Nc1ccc(C(=O)N2CCOCC2)cc1)Nc1ccc(-c2ncc(OCCN3CCOCC3)c(N3CCOCC3)n2)cc1 74.4%
COc1cnc(-c2ccc(NC(=O)Nc3ccc(N4CCOCC4=O)cc3)cc2)nc1N1CCOCC1 94.8%

Exercise: Suppose we examine the molecule COc1cnc(-c2ccc(NC(=O)Nc3ccc(C(=O)NCCCN(C)C)cc3)cc2)nc1N1CCOCC1 ; what inhibition at 0.5 µM value has been reported?
Solution: 71.1%
